B1: POU domain, class 4, transcription factor 1, residues 266 to 347; numbered along this chain, Q01851 (parent)
chain: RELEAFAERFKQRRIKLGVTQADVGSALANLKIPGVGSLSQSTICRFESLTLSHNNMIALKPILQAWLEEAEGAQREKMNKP

- Variants of: B1
- experiment.notes: abundance fitness (aPCA) (normalised: wild type 0, dead -1); higher = more abundant; growth selection in yeast, the domain comes from the species named
- measurement.conditions: Homo sapiens
Rule: abundance fitness under -0.09 gives f, otherwise t.

{"mutant.designation": "H54L", "label.value": "t"}
{"mutant.designation": "H54I", "label.value": "t"}
{"mutant.designation": "V24C", "label.value": "f"}
{"mutant.designation": "W67P", "label.value": "f"}
{"mutant.designation": "W67F", "label.value": "t"}
{"mutant.designation": "H54S", "label.value": "t"}
{"mutant.designation": "K11S", "label.value": "f"}
{"mutant.designation": "N55I", "label.value": "f"}
{"mutant.designation": "G18K", "label.value": "f"}
{"mutant.designation": "K78P", "label.value": "t"}
{"mutant.designation": "V36M", "label.value": "f"}
{"mutant.designation": "N80H", "label.value": "t"}
{"mutant.designation": "S26F", "label.value": "t"}
{"mutant.designation": "L31Q", "label.value": "t"}
{"mutant.designation": "L68G", "label.value": "f"}
{"mutant.designation": "L64A", "label.value": "f"}
{"mutant.designation": "R9T", "label.value": "t"}
{"mutant.designation": "L39Q", "label.value": "f"}
{"mutant.designation": "R76Y", "label.value": "f"}
{"mutant.designation": "K81T", "label.value": "t"}
{"mutant.designation": "L28V", "label.value": "t"}
{"mutant.designation": "A59D", "label.value": "t"}
